inhibition by entry:
Target: Uracil-DNA glycosylase (Homo sapiens) (UniProt P13051);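 further: UNG excision on a quenched double-stranded DNA oligo probe, with APE1 added for strand incision and turnover, read as fluorescence at 594 nm as strands separate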
Sequence (P13051 whole entry): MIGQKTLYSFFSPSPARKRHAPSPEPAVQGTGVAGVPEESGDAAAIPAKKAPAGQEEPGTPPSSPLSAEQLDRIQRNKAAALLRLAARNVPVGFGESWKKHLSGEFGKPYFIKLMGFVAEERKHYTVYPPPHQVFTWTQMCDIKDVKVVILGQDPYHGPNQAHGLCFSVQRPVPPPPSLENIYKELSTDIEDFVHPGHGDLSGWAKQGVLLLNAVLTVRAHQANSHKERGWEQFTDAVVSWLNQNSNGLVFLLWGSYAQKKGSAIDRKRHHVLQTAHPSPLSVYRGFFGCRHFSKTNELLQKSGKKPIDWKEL
Conditions: Compound Concentration 10.0 uM, Hit No
Description: Inhibition of UNG by quantifying inhibition of UNG-mediated cleavage and dissociation of quenched duplex DNA oligonucleotides, measured as fluorescence at 594 nm. To generate a functional strand incision and increase turn-over this assay is coupled to APE1.
// units = %; emit number, no label

Cc1c(F)cccc1[C@H]1COC(N)=N1 ... -1.2
O=C(O)c1ccc(-c2coc3ncc(-c4ccccc4)cc23)cc1Cl ... 3.81
C[C@@H](OC[C@@]1(c2ccccc2)CC[C@]2(CCC(=O)N2)CN1)c1cc(C(F)(F)F)cc(C(F)(F)F)c1 ... -7.13

Prompt: Reported inhibition for "COc1ccc(NS(=O)(=O)c2sc3ccc(Cl)cc3c2C)cc1N1CCNCC1" : what is it?
Completion: -3.02

Prompt: Reported inhibition for "O=C(NCC(=O)N1CC[C@H](N[C@H]2CC[C@@](O)(c3ccc(-c4ncccn4)cn3)CC2)C1)c1cccc(C(F)(F)F)c1" : what is it?
Completion: -9.06

---

Target: Endonuclease III-like protein 1 (Homo sapiens);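 further: enzyme assay tracking NTHL1 cutting and release of a quenched double-stranded DNA oligo substrate, read as fluorescence at 594 nm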
Sequence (whole entry): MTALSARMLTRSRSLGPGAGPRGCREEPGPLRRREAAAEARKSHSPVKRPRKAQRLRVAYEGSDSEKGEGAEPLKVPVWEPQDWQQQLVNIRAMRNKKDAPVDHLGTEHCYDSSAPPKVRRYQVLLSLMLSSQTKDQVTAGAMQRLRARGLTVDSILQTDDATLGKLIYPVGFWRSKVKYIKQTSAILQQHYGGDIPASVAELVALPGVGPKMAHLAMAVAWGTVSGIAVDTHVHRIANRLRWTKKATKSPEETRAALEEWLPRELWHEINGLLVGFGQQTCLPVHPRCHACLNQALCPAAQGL
Conditions: Compound Concentration 10.0 uM, Hit No
Description: Inhibition of NTHL1 by quantifying inhibition of NTHL1-mediated cleavage and dissociation of quenched duplex DNA oligonucleotides, measured as fluorescence at 594 nm.
endpoint-name: inhibition (%)
// units = %; emit number, no label

CCCCCNC(=O)N1CCC(CN(Cc2ccc(Cl)cc2)Cc2ccc([N+](=O)[O-])s2)C1 (stereo not given) ... 1.34
O=C1NC(c2ccccn2)Sc2ccccc21 (stereo not given) ... -7.2
CCCCCCCC/C=C\CCCCCCCC(=O)NCc1ccc(O)c(OC)c1 ... -7.69
C[C@@H]1CN(c2cc(-c3n[nH]c4ccc(OC5(C)CC5)cc34)ncn2)C[C@H](C)O1 ... 2

Please find the next compound below.
Prompt: Reported inhibition for "c1cc(CN2CCCNCCNCCCNCC2)ccc1CN1CCCNCCNCCCNCC1" : what is it?
Completion: 13.7

---

Target: Endonuclease 8-like 2 (Homo sapiens);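 further: fluorescence at 594 nm reports NEIL2 cutting and release of a quenched double-stranded DNA oligo substrate, reduced signal read as inhibition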
Settings: Compound Concentration 10.0 uM, Hit No
Description: Inhibition of NEIL2 by quantifying inhibition of NEIL2-mediated cleavage and dissociation of quenched duplex DNA oligonucleotides, measured as fluorescence at 594 nm.
inhibition by entry:
// units = %; emit number, no label

Some solved cases for reference:
CCc1nn2c(C)cc(C)nc2c1Cc1ccc(-c2nnc(C3CCNCC3)o2)cc1 ... 2.26
Cc1ccc(F)cc1C(=O)Nc1ccc(C(=O)N2Cc3cccn3Cc3ccccc32)c(Cl)c1 ... -4.48
O=C(Nc1ccc(-n2nc(C(F)(F)F)cc2C(F)(F)F)cc1)c1ccncc1F ... -8.25
O=C(Nc1c(-c2cccs2)nc2ccc(Cl)cn12)c1ccc(Cl)cc1 ... 6.02
O=C(N1CCS(=O)(=O)CC1)N1C[C@H](c2ccc(OC(F)(F)F)cc2)C[C@H](c2nc(C3CC3)no2)C1 ... -9.67
C=CC(=O)Nc1cccc(C(=O)Nc2ccc(Nc3cc(-c4[nH]c(S)nc4C)ccn3)cc2)c1 ... 8.04
CCN(CC)S(=O)(=O)Nc1cccc(-c2ccc3c(NC(=O)C4CC4)n[nH]c3c2)c1 ... 5.35
CC(=O)Nc1nc(CN2CCC[C@H](Cc3cc(C)nc(C)c3)C2)cs1 ... 3.85

Please find the next molecule below.
Prompt: Reported inhibition for "CC(=O)C1=C(C)N(c2cccc(C(F)(F)F)c2)C(=O)N[C@H]1c1ccc(C#N)nc1" : what is it?
Completion: 6.4
